Record form. Attribute: melting point. Fill in for each entry.

Worked examples follow.
[
  {
    "COMPOUND": "Cc1ccc(F)cc1NC(=O)N1CCN(Cc2nc3ccccc3c(=O)[nH]2)CC1 [A30]",
    "ASSAY READOUT": "melting point",
    "TEST RESULT": "201.1 to 202.8 °C"
  },
  {
    "COMPOUND": "Cc1ccc(Cl)cc1NC(=O)N1C2CC1CN(Cc1nc3cc(F)ccc3c(=O)[nH]1)C2 [C1]",
    "ASSAY READOUT": "melting point",
    "TEST RESULT": "193.2 to 195.1 °C"
  },
  {
    "COMPOUND": "O=C(Nc1ccccc1C(F)(F)F)N1CCN(Cc2nc3ccccc3c(=O)[nH]2)CC1 [A13]",
    "ASSAY READOUT": "melting point",
    "TEST RESULT": "200.1 to 201.2 °C"
  },
  {
    "COMPOUND": "O=C(Nc1ccc(C(F)(F)F)cc1F)N1CCN(Cc2nc3ccccc3c(=O)[nH]2)CC1 [A24]",
    "ASSAY READOUT": "melting point",
    "TEST RESULT": "202.3 to 203.9 °C"
  },
  {
    "COMPOUND": "Cc1ccc2c(=O)[nH]c(CN3CC4CC(C3)N4C(=O)Nc3cc(Cl)ccc3C)nc2c1 [C3]",
    "ASSAY READOUT": "melting point",
    "TEST RESULT": "197.7 to 199.3 °C"
  }
]

For every record below, what is its melting point?
1. Cc1cc(F)ccc1NC(=O)N1CCN(Cc2nc3ccccc3c(=O)[nH]2)CC1 [A29]
2. O=C(Nc1ccc(C(F)(F)F)cc1)N1CCN(Cc2nc3ccccc3c(=O)[nH]2)CC1 [A15]
3. Cc1ccccc1NC(=O)N1CCN(Cc2nc3ccccc3c(=O)[nH]2)CC1 [A10]
4. O=C(Nc1ccc(F)c(Cl)c1)N1CCN(Cc2nc3ccccc3c(=O)[nH]2)CC1 [A36]
5. Cc1ccc(Cl)cc1NC(=O)N1C2CC1CN(Cc1nc3ccc(F)cc3c(=O)[nH]1)C2 [C4]
6. Cc1ccc(NC(=O)N2CCN(Cc3nc4ccccc4c(=O)[nH]3)CC2)c(F)c1 [A22]

197.6 to 200.1 °C
198.8 to 200.6 °C
199.9 to 201.6 °C
200.1 to 202.7 °C
192.1 to 193.5 °C
198.4 to 200.7 °C

====

ASSAY READOUT: melting point

Sample records with melting point:
[
  {
    "COMPOUND": "O=C(Nc1cccc(Br)c1)N1CCN(Cc2nc3ccccc3c(=O)[nH]2)CC1 [A8]",
    "melting point": "194.2 to 196.3 °C"
  },
  {
    "COMPOUND": "O=C(Nc1cc(C(F)(F)F)ccc1Cl)N1CCN(Cc2nc3ccccc3c(=O)[nH]2)CC1 [A26]",
    "melting point": "191.2 to 193.9 °C"
  },
  {
    "COMPOUND": "O=C(Nc1ccc(Cl)cc1)N1CCN(Cc2nc3ccccc3c(=O)[nH]2)CC1 [A6]",
    "melting point": "189.8 to 191.4 °C"
  }
]

Parameter requested: melting point. Apply to each item below.
1. O=C(Nc1cc(Cl)cc(Cl)c1)N1CCN(Cc2nc3ccccc3c(=O)[nH]2)CC1 [A35]
2. O=C(Nc1cccc(F)c1)N1CCN(Cc2nc3ccccc3c(=O)[nH]2)CC1 [A2]
3. COc1ccccc1NC(=O)N1CCN(Cc2nc3ccccc3c(=O)[nH]2)CC1 [A16]
4. Cc1ccc(Cl)cc1NC(=O)N1C[C@H]2CC[C@@H](C1)N2Cc1nc2ccccc2c(=O)[nH]1 [B5]

207.5 to 209.5 °C
189.5 to 192.1 °C
188.5 to 190.7 °C
189.5 to 191.7 °C

So what's the measured melting point for this one? O=C(Nc1ccccc1Br)N1CCN(Cc2nc3ccccc3c(=O)[nH]2)CC1 [A7]
195.1 to 196.7 °C

Values were extracted from paper PMC10974284.
